Target: HLA-A*24:02
Test: IEDB peptide-MHC binding, purified MHC/direct/fluorescence; filed as Kd, often an IC50 or EC50 that approximates it; bounds were set here for any values at or beyond the usual limits of such assays
Conditions: source organism: Influenza A virus (A/swine/Korea/S190/2004(H9N2))
MEASURED METRIC: Kd

INPUT: Name the recorded Kd for IPKRNRSIL .
OUTPUT: ≥ 20 µM

----------
Biological target: HLA-A*29:02
Experiment: IEDB peptide-MHC binding, purified MHC/direct/fluorescence; filed as Kd, often an IC50 or EC50 that approximates it; bounds were set here for any values at or beyond the usual limits of such assays
Conditions: source organism: Mycolicibacterium gilvum
pKd: −log10 of the molar value.
MEASURED METRIC: pKd

INPUT: Consider the sequence shown here: PHDPDFLVL What is its recorded pKd?
OUTPUT: ≤ 4.70

----------
Molecular target: HLA-B*15:17
Assay: IEDB peptide-MHC binding, purified MHC/competitive/fluorescence; filed as Kd, often an IC50 or EC50 that approximates it; bounds were set here for any values at or beyond the usual limits of such assays
Conditions: source organism: Vaccinia virus
pKd: −log10 of the molar value.
MEASURED METRIC: pKd

INPUT: Find the recorded pKd belonging to RVATENIAV and report it.
OUTPUT: ≤ 4.70

----------
Target: HLA-B*15:01
Assay: IEDB peptide-MHC binding, purified MHC/direct/fluorescence; filed as Kd, often an IC50 or EC50 that approximates it; bounds were set here for any values at or beyond the usual limits of such assays
Settings: source organism: Influenza A virus (A/swine/Korea/S190/2004(H9N2))
pKd: −log10 of the molar value.
MEASURED METRIC: pKd

INPUT: Quick check: pKd of IPKRNRSIL ?
OUTPUT: ≤ 4.70

----------
Molecular target: HLA-A*30:01
Test: IEDB peptide-MHC binding, purified MHC/direct/fluorescence; filed as Kd, often an IC50 or EC50 that approximates it; bounds were set here for any values at or beyond the usual limits of such assays
Details: source organism: Brucella melitensis
MEASURED METRIC: Kd (nM)
Give bare numbers, in nM.

INPUT: If you can, please state the reported Kd value of SRIGAWASK .
OUTPUT: 1270

----------
Target: HLA-B*58:01
Assay: IEDB peptide-MHC binding, purified MHC/direct/fluorescence; filed as Kd, often an IC50 or EC50 that approximates it; bounds were set here for any values at or beyond the usual limits of such assays
Details: source organism: Mammarenavirus lassaense
MEASURED METRIC: pKd
Give bare numbers, as −log10 of the molar value.

INPUT: What value of pKd has been reported for the following sequence? KSFLWTQSL
OUTPUT: 7.38

----------
Answer each item with its documented Kd.
Target: HLA-B*15:01
Assay: IEDB peptide-MHC binding, purified MHC/direct/fluorescence; filed as Kd, often an IC50 or EC50 that approximates it; bounds were set here for any values at or beyond the usual limits of such assays
Details: source organism: Escherichia coli O157:H7

Example entries and their recorded answers appear below.
INPUT: Please look up its Kd: ITAGYNRYY
OUTPUT: 0.108 µM

INPUT: Need Kd, item ETWVETWAF
OUTPUT: 1.17 µM

Shifting focus to the sequence that follows.
INPUT: Please look up its Kd: LLKLWIDKV
OUTPUT: ≥ 20 µM

----------
Target: HLA-B*18:01
Test: IEDB peptide-MHC binding, purified MHC/direct/fluorescence; filed as Kd, often an IC50 or EC50 that approximates it; bounds were set here for any values at or beyond the usual limits of such assays
Details: source organism: Orthohantavirus andesense
pKd: −log10 of the molar value.
MEASURED METRIC: pKd

INPUT: I have this sequence here, YLQAKSQVL , and I need its recorded pKd.
OUTPUT: ≤ 4.70

----------
Molecular target: HLA-B*07:02
Test: IEDB peptide-MHC binding, purified MHC/direct/fluorescence; filed as Kd, often an IC50 or EC50 that approximates it; bounds were set here for any values at or beyond the usual limits of such assays
Details: source organism: Influenza A virus (A/England/627/01(H1N2))
pKd: −log10 of the molar value.
MEASURED METRIC: pKd

INPUT: Given the entry KMARLGKGY , what pKd was observed with HLA-B*07:02?
OUTPUT: ≤ 4.70

----------
Biological target: HLA-A*26:02
Experiment: IEDB peptide-MHC binding, purified MHC/competitive/fluorescence; filed as Kd, often an IC50 or EC50 that approximates it; bounds were set here for any values at or beyond the usual limits of such assays
Conditions: source organism: Orthomarburgvirus marburgense
MEASURED METRIC: Kd (µM)
One number for each entry, in µM.

INPUT: Sample NQECWDSVF — what was its Kd?
OUTPUT: 0.384

----------
Target: HLA-A*31:01
Assay: IEDB peptide-MHC binding, purified MHC/competitive/fluorescence; filed as Kd, often an IC50 or EC50 that approximates it; bounds were set here for any values at or beyond the usual limits of such assays
Conditions: source organism: Vaccinia virus WR
pKd: −log10 of the molar value.
MEASURED METRIC: pKd

INPUT: Dear colleague, I am looking for the recorded pKd of the following sequence: IQFMHEQGY
OUTPUT: ≤ 4.70

----------
Molecular target: HLA-A*68:02
Test: IEDB peptide-MHC binding, purified MHC/direct/fluorescence; filed as Kd, often an IC50 or EC50 that approximates it; bounds were set here for any values at or beyond the usual limits of such assays
Conditions: source organism: Marburg virus - Musoke, Kenya, 1980
Give measured Kd for each item. Keep answers brief.

INPUT: So what's the measured Kd for this one? KRLLLKLDF
OUTPUT: ≥ 20 µM

New cases:
INPUT: Sample NQECWDSVF — what was its Kd?
OUTPUT: ≥ 20 µM

----------
Give measured pKd for each item. Keep answers brief.
Target: HLA-B*51:01
Assay: IEDB peptide-MHC binding, purified MHC/competitive/radioactivity; filed as Kd, often an IC50 or EC50 that approximates it; bounds were set here for any values at or beyond the usual limits of such assays
Conditions: source organism: SARS coronavirus Tor2
One number for each entry, as −log10 of the molar value.

INPUT: Query (sequence): MPNMLRIMA ; field requested: pKd
OUTPUT: 6.41

Further cases:
INPUT: Would you kindly share the measured pKd for FPREGVFVF ?
OUTPUT: 7.50

----------
Biological target: HLA-B*57:01
Assay: IEDB peptide-MHC binding, purified MHC/direct/fluorescence; filed as Kd, often an IC50 or EC50 that approximates it; bounds were set here for any values at or beyond the usual limits of such assays
Conditions: source organism: Rickettsia canadensis
pKd: −log10 of the molar value.
MEASURED METRIC: pKd

INPUT: Look at this sequence and give its reported pKd. SSEADCFTY
OUTPUT: ≤ 4.70

----------
Target: HLA-B*27:03
Assay: IEDB peptide-MHC binding, purified MHC/direct/fluorescence; filed as Kd, often an IC50 or EC50 that approximates it; bounds were set here for any values at or beyond the usual limits of such assays
Conditions: source organism: Vibrio vulnificus CMCP6
MEASURED METRIC: Kd

INPUT: Recorded Kd of MPIAAAIGT , please.
OUTPUT: ≥ 20 µM

----------
Biological target: HLA-B*08:03
Test: IEDB peptide-MHC binding, purified MHC/direct/fluorescence; filed as Kd, often an IC50 or EC50 that approximates it; bounds were set here for any values at or beyond the usual limits of such assays
Settings: source organism: Ravn virus - Ravn, Kenya, 1987
MEASURED METRIC: Kd

INPUT: Given the entry FIYFGKKQY , report its measured Kd.
OUTPUT: ≥ 20 µM

----------
Target: HLA-A*68:02
Experiment: IEDB peptide-MHC binding, purified MHC/direct/fluorescence; filed as Kd, often an IC50 or EC50 that approximates it; bounds were set here for any values at or beyond the usual limits of such assays
Conditions: source organism: Francisella tularensis subsp. tularensis
MEASURED METRIC: Kd

INPUT: If you can, please state the reported Kd value of RYSNFAWYF .
OUTPUT: ≥ 20 µM

----------
Target: HLA-A*11:01
Assay: IEDB peptide-MHC binding, purified MHC/direct/fluorescence; filed as Kd, often an IC50 or EC50 that approximates it; bounds were set here for any values at or beyond the usual limits of such assays
Settings: source organism: Orthohantavirus andesense
MEASURED METRIC: Kd

INPUT: # get_value(readout= Kd, system= HLA-A*11:01) for YLQAKSQVL
OUTPUT: ≥ 20 µM

----------
Target: HLA-B*15:17
Assay: IEDB peptide-MHC binding, purified MHC/direct/fluorescence; filed as Kd, often an IC50 or EC50 that approximates it; bounds were set here for any values at or beyond the usual limits of such assays
Settings: source organism: Influenza A virus (A/Quail/Shanghai/8/96(H9N2))
MEASURED METRIC: pKd
Numbers only, as −log10 of the molar value.

INPUT: Need pKd of LVGGREWSY , thanks.
OUTPUT: 5.72
